System: ICR mice
Assay: Anti-epilepsy activity, MES test, mouse
Type: in vivo
recorded metric: MES test (po) Peak time (h)
// note: answer is a bare numeric in h

Consider the reported MES test (po) Peak time for these compounds:
smiles str: C[C@@H](OS(N)(=O)=O)[C@H](O)c1ccccc1I
value unit: h
MES test (po) Peak time: 1
//
smiles str: COCO[C@@H](c1ccccc1Cl)[C@H](C)OS(=O)(=O)NC1CC1
value unit: h
MES test (po) Peak time: 4
//
smiles str: C[C@@H](OS(N)(=O)=O)[C@H](OS(N)(=O)=O)c1ccccc1Cl
value unit: h
MES test (po) Peak time: 2

Q: For the compound COCO[C@H](c1c(Cl)cccc1Cl)[C@@H](C)OS(N)(=O)=O , what MES test (po) Peak time is on record?
Result: 1

Q: For the compound COCO[C@H](c1ccccc1I)[C@@H](C)OS(N)(=O)=O , what MES test (po) Peak time is on record?
Result: 1

Q: For the compound COCO[C@H](c1ccccc1Cl)[C@@H](C)OS(N)(=O)=O , what MES test (po) Peak time is on record?
Result: 2

###

System: Sprague-Dawley rats
Test: Antiallodynic activity on Complete Freund's Adjuvant (CFA)-induced inflammatory pain model
Format: in vivo
Conditions: Rattus norvegicus, ip, intraperitoneally, at peak time
recorded metric: ED50
Record the result as a number with its unit.

Consider the reported ED50 for these compounds:
smiles str: C[C@@H](OS(N)(=O)=O)[C@H](O)c1c(Cl)cccc1Cl
meas value: 52.7 mg/kg
//
smiles str: COCO[C@@H](c1ccccc1Cl)[C@H](C)OS(N)(=O)=O
meas value: 29.5 mg/kg
//
smiles str: C[C@H](OS(N)(=O)=O)[C@@H](O)c1ccccc1F
meas value: 48.7 mg/kg

Q: Entry C[C@H](OS(N)(=O)=O)[C@@H](O)c1c(Cl)cccc1Cl , system Sprague-Dawley rats: what ED50 was measured?
Result: 31.9 mg/kg

###

System: SD rats
Assay: Anti-epilepsy activity, scPTZ test, rat
Assay type: in vivo
recorded metric: scPTZ test (ip) Peak time

compound: COCO[C@H](c1ccccc1Cl)[C@@H](C)OS(N)(=O)=O [Example 70]
meas value: (1 h)

compound: C[C@@H](OS(N)(=O)=O)[C@H](O)c1ccccc1Cl [Example 2]
meas value: 1 h

compound: C[C@@H](OS(N)(=O)=O)[C@H](O)c1c(Cl)cccc1Cl [Example 8]
meas value: (1 h)

###

Test system: ICR mice
Experiment: Anti-epilepsy activity, MES test, mouse
Format: in vivo
Details: po
Examples of compounds with documented ED50 follow.
// note: answer is a bare numeric in mg/kg

smiles str: C[C@@H](OS(N)(=O)=O)[C@H](O)c1ccccc1Cl
meas value: 22.8
--
smiles str: COCO[C@H](c1c(Cl)cccc1Cl)[C@@H](C)OS(N)(=O)=O
meas value: 54.4
--
smiles str: COCO[C@@H](c1sc(Cl)nc1Cl)[C@H](C)OS(N)(=O)=O
meas value: 52.7
--
smiles str: COCO[C@H](c1ccccc1Cl)[C@@H](C)OS(N)(=O)=O
meas value: 50.5
--
smiles str: C[C@H](OS(N)(=O)=O)[C@@H](O)c1ccccc1Cl
meas value: 46.9
--
smiles str: C[C@H](OS(N)(=O)=O)[C@@H](O)c1sc(Cl)nc1Cl
meas value: 42.7
--
smiles str: COCO[C@@H](c1cccc(Cl)c1Cl)[C@H](C)OS(N)(=O)=O
meas value: 67.8
--
smiles str: C[C@@H](OS(N)(=O)=O)[C@H](O)c1ccccc1F
meas value: 62

Q: For the compound C[C@H](OS(N)(=O)=O)[C@@H](O)c1c(Cl)cccc1Cl , what ED50 is on record?
Result: 40.7

Q: For the compound C[C@@H](OS(N)(=O)=O)[C@H](O)c1c(Cl)cccc1Cl , what ED50 is on record?
Result: 27.9

Q: For the compound C[C@H](OS(N)(=O)=O)[C@@H](O)c1cccc(Cl)c1Cl , what ED50 is on record?
Result: 61.8
